# Assayed System: Cannabinoid receptor 1 (Rattus norvegicus, UniProt P20272)
# Sequence (P20272 whole entry): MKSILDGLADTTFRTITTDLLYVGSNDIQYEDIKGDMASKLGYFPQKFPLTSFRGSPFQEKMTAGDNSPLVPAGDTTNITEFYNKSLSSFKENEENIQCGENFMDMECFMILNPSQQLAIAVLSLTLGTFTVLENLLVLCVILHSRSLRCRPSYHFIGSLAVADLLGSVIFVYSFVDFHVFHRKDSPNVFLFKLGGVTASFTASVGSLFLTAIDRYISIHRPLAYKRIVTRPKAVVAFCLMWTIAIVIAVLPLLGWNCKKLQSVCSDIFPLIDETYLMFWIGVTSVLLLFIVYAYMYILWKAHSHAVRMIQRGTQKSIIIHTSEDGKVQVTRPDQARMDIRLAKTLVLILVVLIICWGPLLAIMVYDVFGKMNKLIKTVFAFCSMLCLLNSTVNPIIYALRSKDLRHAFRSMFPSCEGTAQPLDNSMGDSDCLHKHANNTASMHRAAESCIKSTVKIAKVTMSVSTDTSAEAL
# Experimental Protocol: Displacement of [3H]CP-55,940 from CB1 receptor in rat brain homogenates in absence of phenylmethanesulfonyl fluoride
# Assay type: tissue-based
Measured Property: pKi
Formally, pKi is defined as -log10 of the concentration c, with c in mol/L.

Task: Need pKi, item C[C@H](CO)NC(=O)CCC/C=C\C[C@H]1C(=O)C[C@@H](O)[C@@H]1/C=C/[C@@H](O)CCc1ccccc1
Output: 6.11

Task: What about this compound? O=C(CCC/C=C\C[C@H]1C(=O)C[C@@H](O)[C@@H]1/C=C/[C@H](O)CCc1ccccc1)NCCO
Output: 6.13

Continue with the next compound.
Task: Can you share its pKi? I mean this compound: O=C(CCC/C=C\C[C@H]1C(=O)C[C@@H](O)[C@@H]1/C=C/[C@@H](O)CCc1ccc(I)cc1)NCCO
Output: 6.08
